Where do the numbers come from? From patent US20080219971A1.

Answer each item with its documented Kd.
Molecular target: T1, Human CD100 (human, UniProt Q92854 22-734, limits assumed)
T1 construct: also called SEMA4D; Hu CD100
T1 sequence (looked up): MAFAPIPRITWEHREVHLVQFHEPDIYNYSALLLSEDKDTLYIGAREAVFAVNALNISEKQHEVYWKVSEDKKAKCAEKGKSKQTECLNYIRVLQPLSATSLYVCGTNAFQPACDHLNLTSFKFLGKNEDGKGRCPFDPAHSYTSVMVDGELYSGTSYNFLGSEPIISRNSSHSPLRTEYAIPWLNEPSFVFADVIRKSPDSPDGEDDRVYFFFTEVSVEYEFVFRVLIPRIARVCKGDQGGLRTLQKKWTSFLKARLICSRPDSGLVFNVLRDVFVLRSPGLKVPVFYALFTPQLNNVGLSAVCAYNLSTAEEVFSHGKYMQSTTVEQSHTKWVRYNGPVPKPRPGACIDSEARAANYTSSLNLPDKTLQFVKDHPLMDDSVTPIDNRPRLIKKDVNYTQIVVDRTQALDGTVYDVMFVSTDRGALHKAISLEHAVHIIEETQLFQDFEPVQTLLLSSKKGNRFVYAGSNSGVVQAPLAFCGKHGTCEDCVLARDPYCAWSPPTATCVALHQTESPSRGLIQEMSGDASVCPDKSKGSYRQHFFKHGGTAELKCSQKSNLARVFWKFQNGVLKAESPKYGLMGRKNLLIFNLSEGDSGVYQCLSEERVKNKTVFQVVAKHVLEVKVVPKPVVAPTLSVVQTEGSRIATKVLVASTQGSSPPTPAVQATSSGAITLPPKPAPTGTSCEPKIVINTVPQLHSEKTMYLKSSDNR
Assay: affinity testing, method and unit not printed in Example 10 (nM as in Table 3); mutant value, before the parentheses
Answers are plain numbers, in nM.

Some binders with recorded Kd:
BINDER | Kd / nM
MAb 2220 (antibody, V domains shown, H1651 mutant VH combined with L284; also called H1651 Y60F with L284) VH: QVQLVQSGAEVKKPGSSVKVSCKASGYTFTDYYMDWVRQAPGQGLEWMGRVNPYHGGATFNQKFKGRVTITADKSTSTAYMELSSLRSEDTAVYYCAREENSYDGYYGMDYWGQGTLVTVSS VL: DIVMTQSPLSLPVSPGEPATINCKSSQSLFNSGNQKNYLAWYLQKPGQPPKLLIYGASTRESGVPDRFSGSGSGTDFTLTISSLQAEDVAVYYCQNDHTYPYTFGQGTKLEIK | 0.04
MAb 2208 (antibody, V domains shown, H1651 mutant VH combined with L284; also called H1651 A58G with L284) VH: QVQLVQSGAEVKKPGSSVKVSCKASGYTFTDYYMDWVRQAPGQGLEWMGRVNPYHGGGTYNQKFKGRVTITADKSTSTAYMELSSLRSEDTAVYYCAREENSYDGYYGMDYWGQGTLVTVSS VL: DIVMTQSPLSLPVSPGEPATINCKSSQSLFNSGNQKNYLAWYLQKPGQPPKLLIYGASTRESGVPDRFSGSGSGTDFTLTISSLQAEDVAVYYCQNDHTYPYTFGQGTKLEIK | 0.08
MAb 2144 (antibody, V domains shown, H1651 mutant VH combined with L284; also called H1651 Q6A with L284) VH: QVQLVASGAEVKKPGSSVKVSCKASGYTFTDYYMDWVRQAPGQGLEWMGRVNPYHGGATYNQKFKGRVTITADKSTSTAYMELSSLRSEDTAVYYCAREENSYDGYYGMDYWGQGTLVTVSS VL: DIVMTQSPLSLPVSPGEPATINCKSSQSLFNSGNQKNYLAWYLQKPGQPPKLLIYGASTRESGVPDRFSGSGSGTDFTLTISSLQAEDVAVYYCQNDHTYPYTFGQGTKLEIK | 0.43

Now look at this entry.
Lab book: Kd of MAb 2139 (antibody, V domains shown, H1651 mutant VH combined with L284; also called H1651 K23T with L284) VH: QVQLVQSGAEVKKPGSSVKVSCTASGYTFTDYYMDWVRQAPGQGLEWMGRVNPYHGGATYNQKFKGRVTITADKSTSTAYMELSSLRSEDTAVYYCAREENSYDGYYGMDYWGQGTLVTVSS VL: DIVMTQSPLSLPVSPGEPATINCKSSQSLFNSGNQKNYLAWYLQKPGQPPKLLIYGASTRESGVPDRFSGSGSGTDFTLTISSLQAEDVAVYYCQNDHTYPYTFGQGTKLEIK noted as 0.61
